# Assay Text: amyloid nucleation score (Sup35N fusion, yeast selection) (log enrichment); library NNK3; higher = more nucleation; inactive = no reads after selection;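 further: zero at mode of non-aggregating sequences after 7 days selection at 30°C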
Measured Metric: amyloid nucleation score

PYFFSLRNPRI inactive
CAKMHTCVYSFCTMEWSLTR inactive
RKWMHMDASVCVTIYWDAGL 0.38
SVILNLMRRWPRKHEVKDAC inactive
LCVDVS inactive

Give me amyloid nucleation score for each of these substances, listed below.
1. SCVDPVRWLRGASF
2. GSISIVVQM
3. MSLRLVMWFSNLVSYTV

Output line:
1: inactive; 2: 2.2; 3: inactive

# batch: return amyloid nucleation score for each of the 7 substances below
1. TKSAYRWSRKVRNEFQGSMG
2. HYADSVESRSALLWLVSFLF
3. IKMNNDGSMILWSLSSPTDL
4. VNSRCI
5. MYFILASSISILFGIKVFPM
6. RCRLSKANFRHWNKEVKWTF
7. YVTDMRCGVL

Output line:
1: inactive; 2: inactive; 3: inactive; 4: inactive; 5: inactive; 6: inactive; 7: inactive

List the reported amyloid nucleation score of each substance below.
1. ITIGTTIGDLSYR
2. PYGNSELYSERGERAHCNLG
3. KSCHQSRFISDYRPAAPEDS

Output line:
inactive
inactive
inactive

---

# Assay Text: amyloid nucleation score (Sup35N fusion, yeast selection) (log enrichment); library NNK3; higher = more nucleation; inactive = no reads after selection
Measured Metric: amyloid nucleation score

Answered examples (5):
CPCRHVFSRLSPF inactive
WCCLETRLYL 1.5
RVVCGNTGNVAIKKGLINMC inactive
SAIYMTVTVLVPFGFEMDNK 0.178
MSVSSCLTPGDGNESHWNSR inactive

For each listed entry, give its amyloid nucleation score.
1. FMTWHFENCCWCRHSRFGLL
2. HMVSTDVTENLWFRQ

Output line:
1: inactive; 2: inactive

// for each sequence in input: emit amyloid nucleation score
1. TVSIRIINT
2. RTTINLLMCGHVMGFNSCLF
3. SCHLEVLFISLFD
4. MDRASVCLEGGMSMVWLRYV
5. AAVHWSTIYYSLGMVKDEGG
6. QKVYNFMWYLFQYIELVYMN

Output line:
[0.15, 1.99, "inactive", "inactive", "inactive", "inactive"]

For each entry beneath this line, provide reported amyloid nucleation score.
1. ACFEAICGYSTLSQ
2. VSVRYPLNKECFYDCL
3. FGVIRHERMEMWRHRSNRCV
4. CRQSVCFGAVC

Output line:
1. inactive
2. inactive
3. inactive
4. inactive

---

# Assay Text: amyloid nucleation score (Sup35N fusion, yeast selection) (log enrichment); library NNK3; higher = more nucleation; inactive = no reads after selection
Measured Metric: amyloid nucleation score

A selection of reference data follows.
NIRYFYAFRLA inactive
GLHVTCGRDYHGWMGDCSMA inactive
YLWEYSEMLSTDI inactive
YREREAAR inactive
CIPIMRTPLGTPSN inactive

Please report amyloid nucleation score for every entry that follows.
1. KWKFCSGYAELMLP
2. SGMDSKRKDSCLLCVHFHVS
3. WQCNCGASICASHKKCANMN

Output line:
1. inactive
2. inactive
3. 0.128

Please state amyloid nucleation score for every substance in the list that follows.
1. ILPFRWIVY
2. RNVIANEGLCQKR
3. FDVVWL
4. TWYRCD

Output line:
1. inactive
2. inactive
3. inactive
4. inactive

Below are 6 substances. Give each one its amyloid nucleation score.
1. GHSGKVVL
2. YVLRCVFSSDNKDGAWTTWI
3. STLLRDEML
4. TVLLIGNMWTYWAYMQCSWG
5. FPLESG
6. VKVMMT

Output line:
inactive
inactive
inactive
inactive
inactive
inactive

Origin of measurements: the supplement of paper PMC12042874
